# Test system: KYSE-140 (Esophageal Squamous Cell Carcinoma)
# ASSAY_SUMMARY: combination Emax (second highest fraction inhibited in the dose matrix, 72 h); higher = more inhibition; extreme values may be limits of the assay

MOLECULE: NC1(C(=O)N[C@@H](CCO)c2ccc(Cl)cc2)CCN(c2ncnc3[nH]ccc23)CC1 [Capivasertib] + COc1nnc2ccc(N3CCC(c4ccc(OCCN5CCN(C)C(=O)[C@H]5C)cc4)CC3)nn12 [AZD5153] (first compound max 10 µM, 7x7, partner max 1 µM)
combination Emax: 0.857

MOLECULE: C[C@@H]1COCCN1c1cc(C2([S@](C)(=N)=O)CC2)nc(-c2ccnc3[nH]ccc23)n1 [AZD6738] + O=C(c1cc(Cc2n[nH]c(=O)c3ccccc23)ccc1F)N1CCN(C(=O)C2CC2)CC1 [Olaparib] (first compound max 10 µM, 7x7, partner max 10 µM)
combination Emax: 0.744

MOLECULE: CN(CCO)CC[C@H](CSc1ccccc1)Nc1ccc(S(=O)(=O)NC(=O)c2ccc(N3CCC([C@@H](O)c4ccccc4-c4ccc(Cl)cc4)CC3)cc2)cc1S(=O)(=O)C(F)(F)F [AZD4320] + C[C@@H](Nc1cc(F)cc(F)c1)c1cc(C(=O)N(C)C)cc2c(=O)cc(N3CCOCC3)oc12 [AZD8186] (first compound max 1 µM, 7x7, partner max 3 µM)
combination Emax: 0.401
